experiment: NCI Yeast Anticancer Drug Screen. Data for the cln2 rad14 strain (AID 165);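 further: 0% = growth equal to vehicle treated cultures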; conditions: S. cerevisiae cln2 rad14 strain, at 50.0 µM, hits give high values
About 79,000 compounds went through this panel and 15% of them were active in at least one assay; those are over-represented in the sample as a whole.
Returns rule met if the recorded growth inhibition is greater than or equal to -20%, and rule not met otherwise.

Consider the following illustrative entries.
O=C(O)C(=C\c1ccccc1)/C(=C\c1ccccc1)C(=O)OCc1ccccc1 | rule met
CCOC(=O)C1(C)CCCC1=O (stereo unspecified) | rule met
OCCNc1ncnc2[nH]ncc12 | rule not met
CN(C)NC(=S)Nc1ccccc1 | rule not met
Cc1ccc(NC(=O)Oc2cccc(C(F)(F)F)c2)cc1 | rule met

### Prompt Item O=c1c2cc([N+](=O)[O-])ccc2c2ccc([N+](=O)[O-])cc2c(=O)n1-c1ccc2c(c1)Cc1ccccc1-2 with growth inhibition of -20% or above?
### Response rule not met

* * *

assay: NCI Yeast Anticancer Drug Screen. Data for the mlh1 rad18 strain (AID 175); conditions: S. cerevisiae mlh1 rad18 strain growth inhibition; at 50.0 µM; hits give high values
This is part of a sample that, as a whole, favours compounds with a hit. Of some 79,000 tested, about 15% had one in any assay.
Each entry below carries its reported growth inhibition.
Reply with just the number (in %).

For this compound ( O=C1C=C(Nc2ccccc2C(=O)CC(=O)C(=O)Nc2ccc(Cl)cc2)c2ccccc2C1=O ), measured growth inhibition is 9.8

For this compound ( Cc1cccc(C)c1NC(=O)Nc1cccc(C(F)(F)F)c1 ), measured growth inhibition is -17.8

For this compound ( COc1ccc(OC)c(NC(=O)C(=O)C(C(=O)c2ccccc2F)C2OC(=O)c3ccccc32)c1 (stereo not given) ), measured growth inhibition is -41.2

For this compound ( C/C(=N/NC(N)=O)C1c2ccccc2Cc2ccccc21 ), measured growth inhibition is -8.15

For this compound ( CC12CCCC=C1N(C=O)c1ccccc12 (stereo not given) ), measured growth inhibition is 16.8

For this compound ( CCOC(=O)CC(=O)C(=O)NNC1=NCCCN1 ), measured growth inhibition is 0.45

For this compound ( O=C1NC2CCC(NC(=O)N1c1ccccc1)C1=C2C1 ), measured growth inhibition is -32.1

For this compound ( C/C(CCn1[nH]c(=O)ccc1=O)=N\OCCCc1ccccc1 ), measured growth inhibition is 11.5

* * *

assay: NCI Yeast Anticancer Drug Screen. Data for the rad50 strain (AID 155);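 further: 0% = growth of vehicle-only cultures of the same strain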; conditions: S. cerevisiae rad50 strain growth inhibition; at 50.0 µM; hits give high values
Compounds without any hit were thinned out: in the full panel of roughly 79,000, 15% have a hit.
Each entry below carries its reported growth inhibition.
Reply with just the number (in %).

The following molecules have reported results that may help.
CC(C)(C)OC(=O)N(CCCN)CCCCN | -7.65
O=C(Nc1ccccc1)Nc1ccccc1C(=O)O | -5.8
O=C1Nc2ccc(Br)cc2C1(O)Cc1cccc([N+](=O)[O-])c1 (configuration not stated) | 7.35
CC(=O)O[C@H]1CC[C@]2(C)C3CC[C@]4(C)C([C@H](C)CCCC(C)C)CCC4[C@]3(/C=N/O)n3c(=O)n(-c4ccccc4)c(=O)n3[C@]2(/C=N\O)C1 (some centres not stated) | 28

For this molecule ( CC1=NOC(=O)/C1=C/c1ccccc1C ), measured growth inhibition is 51.2

For this molecule ( Cc1no[n+]([O-])c1NC(=O)OCc1ccccc1 ), measured growth inhibition is -1.8

For this molecule ( C=CCc1oc(C)nc1CCCC ), measured growth inhibition is 0.2

* * *

assay: NCI Yeast Anticancer Drug Screen. Data for the cln2 rad14 strain (AID 165);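 further: 0% = growth equal to vehicle treated cultures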; details: S. cerevisiae cln2 rad14 strain, at 50.0 µM, hits give high values
The panel holds about 79,000 compounds, 15% with a hit somewhere; the sample as a whole holds those more often. The source made the active and inactive calls. No stated cut-off is given here; in the data, active means growth inhibition above about 70%; inactive means the rest.
Each entry below carries its reported growth inhibition.

The following compounds have reported results that may help.
CC(=O)On1c(-c2ccccc2-c2nc3ccccc3n2OC(C)=O)nc2ccccc21 | 8.9% (inactive)
CC(=O)NCCC1CN(C(=O)/C=C/I)c2ccccc21 (stereo unspecified) | 37.7% (inactive)
c1ccc2c(c1)CCCN2c1ncnc2ccccc12 | -62.6% (inactive)
Nc1nc2ncn(CC(O)COC(=O)c3ccccc3)c2c(=O)[nH]1 (stereo unspecified) | 28.3% (inactive)
CC1(C)CC(=O)N(Nc2ccccc2)C1=O | -7.35% (inactive)

For this compound ( O=[N+]([O-])c1ccc2[nH]c3nc4ncccc4nc3c2c1 ), measured growth inhibition is -20.1% (inactive)

For this compound ( CCOCCOCCOCOCCOCCOCC ), measured growth inhibition is 7.25% (inactive)

* * *

experiment: NCI Yeast Anticancer Drug Screen. Data for the bub3 strain (AID 167); details: S. cerevisiae bub3 mutant strain, at 50.0 µM, hits give high values
Compounds without any hit were thinned out: in the full panel of roughly 79,000, 15% have a hit.
Each entry below carries its reported growth inhibition.
Reply with just the number (in %).

For this compound ( CCCNC(=O)OCC#CCOC(=O)NCCC ), measured growth inhibition is 12.5

* * *

experiment: NCI Yeast Anticancer Drug Screen. Data for the sgs1 mgt1 strain (AID 161);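 further: 0% = growth of cultures given vehicle only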; conditions: S. cerevisiae sgs1 mgt1 strain, at 50.0 µM
This is part of a sample that, as a whole, favours compounds with a hit. Of some 79,000 tested, about 15% had one in any assay. The source made the active and inactive calls. Cut-off read from the data, not from the text of the source: active = growth inhibition above about 70%; inactive = the rest.
# output must be one of active, inactive

Consider the following illustrative entries.
Cc1cc(S(=O)(=O)Nc2n[nH]c(Nc3ccc(Cl)cc3)n2)c(S)cc1Cl | inactive
CCC1(C)OCC(CCCCO)O1 (stereo not drawn) | inactive
Cc1cn(C2CC(OC(=O)C(Cc3ccccc3)NC(=O)OCc3ccccc3)C(COC(=O)C(Cc3ccccc3)NC(=O)OCc3ccccc3)O2)c(=O)[nH]c1=O (stereo not drawn) | inactive

### Prompt Fill in: this test's call for S=C(NCc1ccccc1)Nc1ncn[nH]1 is ___
### Response inactive

* * *

experiment: NCI Yeast Anticancer Drug Screen. Data for the rad50 strain (AID 155);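 further: 0% = growth of vehicle-only cultures of the same strain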; settings: S. cerevisiae rad50 strain growth inhibition; at 50.0 µM; hits give high values
About 79,000 compounds went through this panel and 15% of them were active in at least one assay; those are over-represented in the sample as a whole.
Measurement name: growth inhibition (%)
Reply with just the number (in %).

The following molecules have reported results that may help.
CNC(=S)ON1CCCCC1 | 6.65
C(=C/c1nnc2ncccn12)/c1ccccc1 | -13.8
COC(=O)C1CC=CCCC1=O (configuration not stated) | -3.8
CCSC1(SCC)C2(CCCCC2)C(=O)C12CCCCC2 | -5.55
CC12CCC(=O)OC1(C)OC(=O)CC2 (configuration not stated) | 10.4

For this molecule ( COc1ccc(OC)c(/C=C2/C(=O)N(c3ccccc3)N=C2C)c1 ), measured growth inhibition is -7.55

For this molecule ( OCC(O)C(O)C(O)C(O)/C=N\Nc1ccccc1 (configuration not stated) ), measured growth inhibition is 43.3

* * *

assay: NCI Yeast Anticancer Drug Screen. Data for the mec2-1 strain (AID 157); conditions: S. cerevisiae mec2-1 strain, at 50.0 µM, hits give high values
About 79,000 compounds went through this panel and 15% of them were active in at least one assay; those are over-represented in the sample as a whole.
Returns Y if the recorded growth inhibition is greater than or equal to -20%, and N otherwise.

Cc1cc(N(CCC#N)CCC#N)ccc1/C=C1N=C(/C=C/c2ccccc2)N(c2ccc(S(N)(=O)=O)cc2)C\1=O | Y
CCN(CC)CC(=O)N1CCc2c([nH]c3ccccc23)C1c1cccnc1 (stereo unspecified) | N
CC(=O)CCC(CCCC(CCC(C)=O)[N+](=O)[O-])[N+](=O)[O-] (stereo unspecified) | Y

### Prompt Item C=CS(=O)(=O)c1ccc(NC(=O)Nc2ccc(Cl)cc2)cc1 with growth inhibition of -20% or above?
### Response Y

### Prompt Item CCOC(=O)/C(=C\c1ccccc1)C(=O)O with growth inhibition of -20% or above?
### Response N

* * *

assay: NCI Yeast Anticancer Drug Screen. Data for the mlh1 rad18 strain (AID 175); conditions: S. cerevisiae mlh1 rad18 strain growth inhibition; at 50.0 µM; hits give high values
Compounds without any hit were thinned out: in the full panel of roughly 79,000, 15% have a hit.
Each entry below carries its reported growth inhibition.
Reply with just the number (in %).

O=C(OC1CCCCC1)C(=O)OC1CCCCC1 | 14

For this molecule ( COC(=O)C1(C(C(=O)c2ccccc2)c2ccccc2)NC(=S)NC(=O)C1C#N (stereo unspecified) ), measured growth inhibition is -9.7

For this molecule ( CCOC(=O)CSc1nc(-c2ccc(Cl)cc2)c(C#N)c(=O)[nH]1 ), measured growth inhibition is -79

For this molecule ( N#C/C(=C/NC(=S)NCc1ccccc1)C(N)=O ), measured growth inhibition is -0.3

For this molecule ( Clc1ccc(Cc2ccc(Br)cc2)cc1 ), measured growth inhibition is 13.2

For this molecule ( O=C1c2ccccc2C(=O)N1CNc1ccccc1Cl ), measured growth inhibition is 17.3

For this molecule ( COC12CC3C4CCC5CC(O)CCC5(C)C4CCC3(C)C1C(C)C1(CCC(C)CO1)O2 (stereo unspecified) ), measured growth inhibition is -0.4

For this molecule ( Clc1ccc(N=C2c3ccccc3CN2c2ccc(Cl)cc2)cc1 ), measured growth inhibition is -13.9

For this molecule ( COc1cc(NC(C)CNC(C)C)c2ncccc2c1 (stereo unspecified) ), measured growth inhibition is 2.1

For this molecule ( COC(=O)c1cc(-c2ccccc2Cl)n2c(N)nnc2n1 ), measured growth inhibition is 7.1

For this molecule ( CCCCCCCC(=O)Nc1nnc(SCCCCCCCCCCSc2nnc(NC(=O)CCCCCCC)s2)s1 ), measured growth inhibition is -4.45
